- study-conditions: in toluene, 278.15 K
quantity-kind: solubility (mole fraction)
Keep the answer to the number alone.

Request: Suppose we examine the compound `Cc1cccc([N+](=O)[O-])c1N` ; what solubility (mole fraction) value has been reported?
Result: 0.0237

---

- study-conditions: in 1,4-dioxane, 290.65 K
quantity-kind: solubility (mole fraction)
Keep the answer to the number alone.

Request: Suppose we examine the compound `Cc1cccc([N+](=O)[O-])c1N` ; what solubility (mole fraction) value has been reported?
Result: 0.211

---

- study-conditions: in ethanol, 290.65 K
quantity-kind: solubility (mole fraction)
Keep the answer to the number alone.

Request: Suppose we examine the molecule `Cc1cccc([N+](=O)[O-])c1N` ; what solubility (mole fraction) value has been reported?
Result: 0.017

---

- study-conditions: in isopropanol, 310.65 K
quantity-kind: solubility (mole fraction)
Keep the answer to the number alone.

Request: Suppose we examine the compound `Cc1cccc([N+](=O)[O-])c1N` ; what solubility (mole fraction) value has been reported?
Result: 0.0339

---

- study-conditions: in cyclohexane, 305.65 K
quantity-kind: solubility (mole fraction)
Keep the answer to the number alone.

Request: Suppose we examine the compound `Cc1cccc([N+](=O)[O-])c1N` ; what solubility (mole fraction) value has been reported?
Result: 0.00369

---

- study-conditions: in acetonitrile, 293.15 K
quantity-kind: solubility (mole fraction)
Keep the answer to the number alone.

Request: Suppose we examine the compound `Cc1cccc([N+](=O)[O-])c1N` ; what solubility (mole fraction) value has been reported?
Result: 0.0844

---

- study-conditions: in methanol, 295.65 K
quantity-kind: solubility (mole fraction)

Request: Suppose we examine the compound `Cc1cccc([N+](=O)[O-])c1N` ; what solubility (mole fraction) value has been reported?
Result: 0.0155

---

- study-conditions: in isopropanol, 305.65 K
quantity-kind: solubility (mole fraction)
Keep the answer to the number alone.

Request: Suppose we examine the compound `Cc1cccc([N+](=O)[O-])c1N` ; what solubility (mole fraction) value has been reported?
Result: 0.0277

---

- study-conditions: in toluene, 308.15 K
quantity-kind: solubility (mole fraction)
Keep the answer to the number alone.

Request: Suppose we examine the molecule `Cc1cccc([N+](=O)[O-])c1N` ; what solubility (mole fraction) value has been reported?
Result: 0.0893

---

- study-conditions: in acetone, 305.65 K
quantity-kind: solubility (mole fraction)
Keep the answer to the number alone.

Request: Suppose we examine the compound `Cc1cccc([N+](=O)[O-])c1N` ; what solubility (mole fraction) value has been reported?
Result: 0.249

---

- study-conditions: in cyclohexane, 308.15 K
quantity-kind: solubility (mole fraction)
Keep the answer to the number alone.

Request: Suppose we examine the compound `Cc1cccc([N+](=O)[O-])c1N` ; what solubility (mole fraction) value has been reported?
Result: 0.00424

---

- study-conditions: in acetonitrile, 303.15 K
quantity-kind: solubility (mole fraction)
Keep the answer to the number alone.

Request: Suppose we examine the compound `Cc1cccc([N+](=O)[O-])c1N` ; what solubility (mole fraction) value has been reported?
Result: 0.133

---

- study-conditions: in acetonitrile, 285.65 K
quantity-kind: solubility (mole fraction)
Keep the answer to the number alone.

Request: Suppose we examine the compound `Cc1cccc([N+](=O)[O-])c1N` ; what solubility (mole fraction) value has been reported?
Result: 0.0589

---

- study-conditions: in acetonitrile, 295.65 K
quantity-kind: solubility (mole fraction)
Keep the answer to the number alone.

Request: Suppose we examine the molecule `Cc1cccc([N+](=O)[O-])c1N` ; what solubility (mole fraction) value has been reported?
Result: 0.0954

---

- study-conditions: in toluene, 290.65 K
quantity-kind: solubility (mole fraction)
Keep the answer to the number alone.

Request: Suppose we examine the compound `Cc1cccc([N+](=O)[O-])c1N` ; what solubility (mole fraction) value has been reported?
Result: 0.0417

---

- study-conditions: in 1,4-dioxane, 298.15 K
quantity-kind: solubility (mole fraction)
Keep the answer to the number alone.

Request: Suppose we examine the compound `Cc1cccc([N+](=O)[O-])c1N` ; what solubility (mole fraction) value has been reported?
Result: 0.249

---

- study-conditions: in n-propanol, 285.65 K
quantity-kind: solubility (mole fraction)
Keep the answer to the number alone.

Request: Suppose we examine the molecule `Cc1cccc([N+](=O)[O-])c1N` ; what solubility (mole fraction) value has been reported?
Result: 0.0149

---

- study-conditions: in methanol, 288.15 K
quantity-kind: solubility (mole fraction)
Keep the answer to the number alone.

Request: Suppose we examine the compound `Cc1cccc([N+](=O)[O-])c1N` ; what solubility (mole fraction) value has been reported?
Result: 0.0113

---

- study-conditions: in ethanol, 285.65 K
quantity-kind: solubility (mole fraction)
Keep the answer to the number alone.

Request: Suppose we examine the compound `Cc1cccc([N+](=O)[O-])c1N` ; what solubility (mole fraction) value has been reported?
Result: 0.0139

---

- study-conditions: in toluene, 293.15 K
quantity-kind: solubility (mole fraction)
Keep the answer to the number alone.

Request: Suppose we examine the compound `Cc1cccc([N+](=O)[O-])c1N` ; what solubility (mole fraction) value has been reported?
Result: 0.0469

---

- study-conditions: in isopropanol, 300.65 K
quantity-kind: solubility (mole fraction)
Keep the answer to the number alone.

Request: Suppose we examine the molecule `Cc1cccc([N+](=O)[O-])c1N` ; what solubility (mole fraction) value has been reported?
Result: 0.0225

---

- study-conditions: in ethyl acetate, 295.65 K
quantity-kind: solubility (mole fraction)
Keep the answer to the number alone.

Request: Suppose we examine the compound `Cc1cccc([N+](=O)[O-])c1N` ; what solubility (mole fraction) value has been reported?
Result: 0.155

---

- study-conditions: in acetone, 283.15 K
quantity-kind: solubility (mole fraction)
Keep the answer to the number alone.

Request: Suppose we examine the compound `Cc1cccc([N+](=O)[O-])c1N` ; what solubility (mole fraction) value has been reported?
Result: 0.132

---

- study-conditions: in acetonitrile, 280.65 K
quantity-kind: solubility (mole fraction)
Keep the answer to the number alone.

Request: Suppose we examine the compound `Cc1cccc([N+](=O)[O-])c1N` ; what solubility (mole fraction) value has been reported?
Result: 0.0466

---

- study-conditions: in n-propanol, 300.65 K
quantity-kind: solubility (mole fraction)
Keep the answer to the number alone.

Request: Suppose we examine the compound `Cc1cccc([N+](=O)[O-])c1N` ; what solubility (mole fraction) value has been reported?
Result: 0.0275

---

- study-conditions: in ethanol, 293.15 K
quantity-kind: solubility (mole fraction)
Keep the answer to the number alone.

Request: Suppose we examine the compound `Cc1cccc([N+](=O)[O-])c1N` ; what solubility (mole fraction) value has been reported?
Result: 0.019

---

- study-conditions: in toluene, 298.15 K
quantity-kind: solubility (mole fraction)
Keep the answer to the number alone.

Request: Suppose we examine the compound `Cc1cccc([N+](=O)[O-])c1N` ; what solubility (mole fraction) value has been reported?
Result: 0.0581

---

- study-conditions: in cyclohexane, 283.15 K
quantity-kind: solubility (mole fraction)
Keep the answer to the number alone.

Request: Suppose we examine the molecule `Cc1cccc([N+](=O)[O-])c1N` ; what solubility (mole fraction) value has been reported?
Result: 0.00103

---

- study-conditions: in 1,4-dioxane, 283.15 K
quantity-kind: solubility (mole fraction)
Keep the answer to the number alone.

Request: Suppose we examine the compound `Cc1cccc([N+](=O)[O-])c1N` ; what solubility (mole fraction) value has been reported?
Result: 0.18

---

- study-conditions: in methanol, 278.15 K
quantity-kind: solubility (mole fraction)
Keep the answer to the number alone.

Request: Suppose we examine the compound `Cc1cccc([N+](=O)[O-])c1N` ; what solubility (mole fraction) value has been reported?
Result: 0.00739

---

- study-conditions: in ethanol, 280.65 K
quantity-kind: solubility (mole fraction)
Keep the answer to the number alone.

Request: Suppose we examine the compound `Cc1cccc([N+](=O)[O-])c1N` ; what solubility (mole fraction) value has been reported?
Result: 0.0112

---

- study-conditions: in acetonitrile, 278.15 K
quantity-kind: solubility (mole fraction)
Keep the answer to the number alone.

Request: Suppose we examine the molecule `Cc1cccc([N+](=O)[O-])c1N` ; what solubility (mole fraction) value has been reported?
Result: 0.0418

---

- study-conditions: in toluene, 280.65 K
quantity-kind: solubility (mole fraction)

Request: Suppose we examine the compound `Cc1cccc([N+](=O)[O-])c1N` ; what solubility (mole fraction) value has been reported?
Result: 0.0267

---

- study-conditions: in acetonitrile, 283.15 K
quantity-kind: solubility (mole fraction)
Keep the answer to the number alone.

Request: Suppose we examine the molecule `Cc1cccc([N+](=O)[O-])c1N` ; what solubility (mole fraction) value has been reported?
Result: 0.0529

---

- study-conditions: in methanol, 285.65 K
quantity-kind: solubility (mole fraction)
Keep the answer to the number alone.

Request: Suppose we examine the compound `Cc1cccc([N+](=O)[O-])c1N` ; what solubility (mole fraction) value has been reported?
Result: 0.0102

---

- study-conditions: in n-propanol, 295.65 K
quantity-kind: solubility (mole fraction)

Request: Suppose we examine the compound `Cc1cccc([N+](=O)[O-])c1N` ; what solubility (mole fraction) value has been reported?
Result: 0.0225
